# System: HepG-2 cell line
# protocol notes: MTT cytotoxicity assay, HepG-2
# Assay type: cell-based, human
# assay conditions: Homo sapiens, HepG2, 24 h, read-out: In vitro cytotoxic activity IC50 HepG-2
Output Criterion met for records whose IC50 is lower than 30 µM, Criterion not met for records at or above 30 µM.

>>> class_label("CCOC(=O)c1ccc(N2C(N)=C(C#N)C3(C(=O)Nc4ccccc43)C(C#N)=C2O)cc1 (centres unmarked) [Compound 7]")
"Criterion met"
>>> class_label("CCOC(=O)c1ccc(-n2c(N)c(C#N)c(CC#N)c(C#N)c2=O)cc1 [Compound 10]")
"Criterion met"
>>> class_label("CCOC(=O)C1=C(N)N(c2ccc(C(=O)OCC)cc2)C(O)=C(C#N)C12C(=O)Nc1ccccc12 (centres unmarked) [Compound 8]")
"Criterion met"
>>> class_label("CCOC(=O)c1ccc(-n2c(C)cc(C)c(C#N)c2=O)cc1 [Compound 2]")
"Criterion not met"
>>> class_label("CCOC(=O)c1ccc(NC(=O)C2=C3C(=Nc4ccccc43)NC2=O)cc1 [Compound 6]")
"Criterion not met"

----------
# experimental target: VEGFR-2 (Homo sapiens, UniProt P35968)
# Sequence (P35968 20-1356): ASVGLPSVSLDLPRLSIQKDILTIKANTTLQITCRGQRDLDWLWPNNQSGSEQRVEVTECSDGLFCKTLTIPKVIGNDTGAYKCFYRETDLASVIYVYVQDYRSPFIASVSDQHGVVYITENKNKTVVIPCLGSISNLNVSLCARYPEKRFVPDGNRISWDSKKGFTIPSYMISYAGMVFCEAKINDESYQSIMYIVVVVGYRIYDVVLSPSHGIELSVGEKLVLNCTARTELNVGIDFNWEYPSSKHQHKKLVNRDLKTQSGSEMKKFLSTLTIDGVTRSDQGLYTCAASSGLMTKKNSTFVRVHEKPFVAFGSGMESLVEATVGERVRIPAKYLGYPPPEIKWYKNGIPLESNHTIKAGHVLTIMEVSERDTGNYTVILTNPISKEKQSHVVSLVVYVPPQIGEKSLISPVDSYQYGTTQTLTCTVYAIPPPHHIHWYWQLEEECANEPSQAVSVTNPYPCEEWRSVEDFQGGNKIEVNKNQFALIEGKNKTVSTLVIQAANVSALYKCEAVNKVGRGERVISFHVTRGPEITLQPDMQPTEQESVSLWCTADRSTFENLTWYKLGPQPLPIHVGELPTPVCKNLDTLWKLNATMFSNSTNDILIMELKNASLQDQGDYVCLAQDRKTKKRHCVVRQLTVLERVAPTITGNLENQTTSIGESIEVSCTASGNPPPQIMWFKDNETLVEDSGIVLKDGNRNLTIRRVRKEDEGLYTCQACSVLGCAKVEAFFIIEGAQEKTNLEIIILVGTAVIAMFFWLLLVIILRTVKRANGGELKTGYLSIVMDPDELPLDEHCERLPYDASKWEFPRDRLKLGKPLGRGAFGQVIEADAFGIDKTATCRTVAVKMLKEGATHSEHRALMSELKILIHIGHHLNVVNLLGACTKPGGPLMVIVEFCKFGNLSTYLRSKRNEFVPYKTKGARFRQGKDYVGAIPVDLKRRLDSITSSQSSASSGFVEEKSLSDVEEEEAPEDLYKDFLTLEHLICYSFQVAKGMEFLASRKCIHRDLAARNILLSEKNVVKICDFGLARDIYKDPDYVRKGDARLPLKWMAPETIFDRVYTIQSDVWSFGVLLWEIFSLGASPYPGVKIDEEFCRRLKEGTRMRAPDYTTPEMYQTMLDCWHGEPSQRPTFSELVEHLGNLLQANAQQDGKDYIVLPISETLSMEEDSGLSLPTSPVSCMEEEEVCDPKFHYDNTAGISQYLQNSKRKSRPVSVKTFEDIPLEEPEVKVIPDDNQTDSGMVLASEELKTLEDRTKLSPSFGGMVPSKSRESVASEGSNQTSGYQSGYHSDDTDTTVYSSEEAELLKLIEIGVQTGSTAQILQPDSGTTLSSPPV
# protocol notes: biochemical
# assay conditions: Enzyme inhibitory activity IC50 VEGFR-2, average of three independent tests
pIC50: −log10 of the molar value.
experimental readout: pIC50

>>> recorded_measurement("CCOC(=O)c1ccc(N2C(N)=C(C#N)C3(C(=O)Nc4ccccc43)C(C#N)=C2O)cc1 (stereo not shown)")
6.66

----------
# experimental target: EGFR^Wt (Homo sapiens, UniProt P00533)
# Sequence (P00533 25-1210): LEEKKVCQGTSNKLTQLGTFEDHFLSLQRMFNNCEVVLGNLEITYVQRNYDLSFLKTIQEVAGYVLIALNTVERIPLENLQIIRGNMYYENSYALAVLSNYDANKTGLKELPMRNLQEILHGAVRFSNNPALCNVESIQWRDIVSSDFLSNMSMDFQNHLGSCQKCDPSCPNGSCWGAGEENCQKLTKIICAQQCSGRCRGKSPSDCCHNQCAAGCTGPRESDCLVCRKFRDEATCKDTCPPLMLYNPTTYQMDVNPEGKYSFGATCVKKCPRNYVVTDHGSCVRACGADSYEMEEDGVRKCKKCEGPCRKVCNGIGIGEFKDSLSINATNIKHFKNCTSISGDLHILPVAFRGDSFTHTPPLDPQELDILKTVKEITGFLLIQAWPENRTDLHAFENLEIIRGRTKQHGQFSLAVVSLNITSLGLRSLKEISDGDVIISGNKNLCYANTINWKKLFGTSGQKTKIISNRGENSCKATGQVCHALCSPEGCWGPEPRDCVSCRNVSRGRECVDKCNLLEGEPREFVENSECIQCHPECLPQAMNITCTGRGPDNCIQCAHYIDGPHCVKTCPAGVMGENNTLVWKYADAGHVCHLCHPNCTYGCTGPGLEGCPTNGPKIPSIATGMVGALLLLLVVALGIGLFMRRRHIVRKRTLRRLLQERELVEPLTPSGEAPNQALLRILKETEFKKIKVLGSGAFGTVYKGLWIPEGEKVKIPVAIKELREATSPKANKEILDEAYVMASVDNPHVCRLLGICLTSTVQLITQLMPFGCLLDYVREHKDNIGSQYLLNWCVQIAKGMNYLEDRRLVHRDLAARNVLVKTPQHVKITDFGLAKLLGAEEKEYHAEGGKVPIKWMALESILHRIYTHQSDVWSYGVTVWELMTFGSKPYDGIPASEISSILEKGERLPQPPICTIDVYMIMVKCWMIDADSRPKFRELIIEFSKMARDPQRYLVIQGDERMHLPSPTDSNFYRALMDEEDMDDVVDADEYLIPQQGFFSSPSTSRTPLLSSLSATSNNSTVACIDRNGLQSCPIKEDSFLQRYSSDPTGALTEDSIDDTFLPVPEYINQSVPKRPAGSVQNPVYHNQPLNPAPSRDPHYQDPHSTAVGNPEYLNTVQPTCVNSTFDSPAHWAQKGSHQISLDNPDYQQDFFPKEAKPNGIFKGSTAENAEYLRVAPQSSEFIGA
experimental readout: IC50 (nM)

>>> recorded_measurement("COc1cccc2c1C(=O)c1c(O)c3c(c(O)c1C2=O)C[C@@](O)(C(=O)CO)C[C@@H]3O[C@H]1C[C@H](N)[C@H](O)[C@H](C)O1 [Doxorubicin, reference compound]")
349
